system: RAW-Dual; assay: NF-kB SEAP reporter activity, fold change vs agonist alone; cytotoxicity flag (confluency mask): not cytotoxic; higher = enhanced NF-kB activity; conditions: agonist: LPS (TLR4) 0.1 ug/mL
Over roughly 2,900 compounds, “NF-kB SEAP reporter activity, fold change vs agonist alone” has its median near 0.99; the highest 2% begin near 2.6. Shown is part of a subset that was picked to be rich in the highest values.

Compound	NF-kB SEAP reporter activity
O=C(Nc1ccc(O)c(C(=O)O)c1)c1cccc(NC(=O)c2ccco2)c1 (library stock concentration (final ~1000-fold dilution): 10 mM)	0.971
Oc1ccc(Nc2nc(-c3ccc(Cl)cc3)cs2)cc1 (library stock concentration (final ~1000-fold dilution): 10 mM)	0.311
OCc1ccccc1OC1OC(CO)C(O)C(O)C1O (configuration not stated) (library stock concentration (final ~1000-fold dilution): 10 mM)	0.986
CC(C)n1nc(-c2ccc3oc(N)nc3c2)c2c(N)ncnc21 (library stock concentration (final ~1000-fold dilution): 10 mM)	2.03
CC1c2cccc(O)c2C(=O)C2=C(O)C3(O)C(=O)C(C(N)=O)=C(O)C(N(C)C)C3C(O)C21 (configuration not stated) (library stock concentration (final ~1000-fold dilution): 10 mM)	1.81
O=C(NCc1cccc(O)c1)Nc1nc(-c2ccncc2)cs1 (library stock concentration (final ~1000-fold dilution): 10 mM)	1.01
Nc1ccn(CC(CO)OCP(=O)(O)O)c(=O)n1 (configuration not stated) (library stock concentration (final ~1000-fold dilution): 10 mM water)	1.2
CC1OC(OC2C(Oc3cc(O)c4c(c3)OC(c3ccc(O)cc3)CC4=O)OC(CO)C(O)C2O)C(O)C(O)C1O (configuration not stated) (library stock concentration (final ~1000-fold dilution): 10 mM)	0.935
Cc1cnc(NC(=O)Nc2cc(Br)c(C)cc2OCC2CNCCO2)cn1 (configuration not stated) (library stock concentration (final ~1000-fold dilution): 10 mM)	0.68
CC(C)(C)OC(=O)NC1CCCCC/C=C\C2CC2(C(=O)NS(=O)(=O)C2CC2)NC(=O)C2CC(OC(=O)N3Cc4cccc(F)c4C3)CN2C1=O (configuration not stated) (library stock concentration (final ~1000-fold dilution): 10 mM)	1.01
COc1cc(C2CC(c3ccccc3)=NN2C(N)=S)cc(OC)c1OC (configuration not stated) (library stock concentration (final ~1000-fold dilution): 10 mM)	1.16
Cc1nc(NC(=O)N2CCCC2C(N)=O)sc1-c1ccnc(C(C)(C)C(F)(F)F)c1 (configuration not stated) (library stock concentration (final ~1000-fold dilution): 10 mM)	1.65

---

tested on: RAW-Dual; assay: NF-kB SEAP reporter activity, fold change vs agonist alone; cytotoxicity flag (confluency mask): not cytotoxic; higher = enhanced NF-kB activity; conditions: agonist: Pam3CSK4 (TLR2/1) 0.1 ug/mL
Over roughly 2,900 compounds, “NF-kB SEAP reporter activity, fold change vs agonist alone” has its median near 0.99; the highest 2% begin near 2.6. This is one part of a sample in which the highest values are shown more often than they occur.

Compound	NF-kB SEAP reporter activity
CCC1OC(=O)C(C)C(OC2CC(C)(OC)C(O)C(C)O2)C(C)C(OC2OC(C)CC(N(C)C)C2O)C(C)(O)CC(C)CN(C)C(C)C(O)C1(C)O.O.O (stereo not given) (library stock concentration (final ~1000-fold dilution): 10 mM)	0.978
CCOC(=O)Nc1ccc(NCc2ccc(F)cc2)nc1N.O=C(O)/C=C/C(=O)O (library stock concentration (final ~1000-fold dilution): 10 mM)	1.01
CN1C2CCC1CC(OC(c1ccccc1)c1ccccc1)C2.CS(=O)(=O)O (stereo not given) (library stock concentration (final ~1000-fold dilution): 10 mM)	1.02
CC(C)n1nc(-c2ccc3oc(N)nc3c2)c2c(N)ncnc21 (library stock concentration (final ~1000-fold dilution): 10 mM)	0.973
CC(C)=CCCC(C)(OC1OC(CO)C(O)C(O)C1O)C1CCC2(C)C1C(O)CC1C3(C)CCC(O)C(C)(C)C3C(OC3OC(CO)C(O)C(O)C3OC3OCC(O)C(O)C3O)CC12C (stereo not given) (library stock concentration (final ~1000-fold dilution): 10 mM)	0.975

---

Here the recorded NF-kB SEAP reporter activity is given for each entry.
system: RAW-Dual; assay: NF-kB SEAP reporter activity, fold change vs agonist alone; cytotoxicity flag (confluency mask): not cytotoxic; higher = enhanced NF-kB activity; conditions: agonist: ODN 1826 (TLR9) 0.5 ug/mL
Whole data set: some 2,900 compounds, median “NF-kB SEAP reporter activity, fold change vs agonist alone” near 0.99, cut for the highest 2% near 2.6. The entries come from a sample that favours the highest values as a whole.

Molecule	NF-kB SEAP reporter activity
COc1nc(N)nc2c1ncn2C1OC(CO)C(O)C1O (configuration not stated) (library stock concentration (final ~1000-fold dilution): 10 mM)	0.996
COc1cc(-c2oc3cc(O)cc(O)c3c(=O)c2OC2OC(CO)C(O)C(O)C2OC2OC(C)C(O)C(O)C2O)ccc1O (configuration not stated) (library stock concentration (final ~1000-fold dilution): 10 mM)	0.987
CC(C)=CCCC(C)(OC1OC(CO)C(O)C(O)C1O)C1CCC2(C)C1C(O)CC1C3(C)CCC(O)C(C)(C)C3C(OC3OC(CO)C(O)C(O)C3OC3OCC(O)C(O)C3O)CC12C (configuration not stated) (library stock concentration (final ~1000-fold dilution): 10 mM)	1.02
CN1CCCN=C1/C=C/c1cccc(O)c1.O=C(O)c1cc2ccccc2c(Cc2c(O)c(C(=O)O)cc3ccccc23)c1O (library stock concentration (final ~1000-fold dilution): 10 mM)	0.993
Nc1ccc(-c2cccc(C(=O)Nc3cnc4nc(N5CCOCC5)oc4c3)n2)cn1 (library stock concentration (final ~1000-fold dilution): 10 mM)	1.01
COc1cc(/C=C/CO)cc(OC)c1OC1OC(CO)C(O)C(O)C1O (configuration not stated) (library stock concentration (final ~1000-fold dilution): 10 mM)	1.01
CC1(C)OC2COC3(COS(N)(=O)=O)OC(C)(C)OC3C2O1 (configuration not stated) (library stock concentration (final ~1000-fold dilution): 10 mM)	1.01

---

system: RAW-Dual; assay: NF-kB SEAP reporter activity, fold change vs agonist alone; higher = enhanced NF-kB activity; details: library stock concentration (final ~1000-fold dilution): 10 mM; cytotoxicity flag (confluency mask): not cytotoxic; agonist: Imiquimod (TLR7) […]
In all, about 2,900 compounds were measured (“NF-kB SEAP reporter activity, fold change vs agonist alone”: median about 0.99, highest 2% from about 2.6 on). The sample holds the highest values, similar compounds and a random draw of the others, so the mix is not that of the screen.

Molecule	NF-kB SEAP reporter activity
CCN(CC)CC#CCOC(=O)C(O)(c1ccccc1)C1CCCCC1.Cl (configuration not stated)	1.75
Cc1nc2ccc(CN(C)c3ccc(C(=O)NC(CCC(=O)O)C(=O)O)s3)cc2c(=O)[nH]1 (configuration not stated)	1.78
O=C(OCC1OC(OC(=O)c2cc(O)c(O)c(OC(=O)c3cc(O)c(O)c(O)c3)c2)C(OC(=O)c2cc(O)c(O)c(OC(=O)c3cc(O)c(O)c(O)c3)c2)C(OC(=O)c2cc(O)c(O)c(OC(=O)c3cc(O)c(O)c(O)c3)c2)C1OC(=O)c1cc(O)c(O)c(OC(=O)c2cc(O)c(O)c(O)c2)c1)c1cc(O)c(O)c(OC(=O)c2cc(O)c(O)c(O)c2)c1 (configuration not stated)	0.144
CN1C2=C3N=c4ccccc4=C3CCN2C(=O)c2ccccc21	1.62
CS(=O)(=O)O.Cc1c(O)cccc1C(=O)NC(CSc1ccccc1)C(O)CN1CC2CCCCC2CC1C(=O)NC(C)(C)C (configuration not stated)	2.13
C=CC(=O)N1CCN(CCCn2c(=O)c(-c3c(Cl)c(OC)cc(OC)c3Cl)cc3cnc(NC)nc32)CC1	0.952
COc1ccc(S(=O)(=O)N(CCO)c2ccccc2CN(C)CC=Cc2ccc(Cl)cc2)cc1	0.802
Cc1cnc(NC(=O)Nc2cc(Br)c(C)cc2OCC2CNCCO2)cn1 (configuration not stated)	0.872
Nc1nc(F)nc2c1ncn2C1OC(CO)C(O)C1O (configuration not stated)	0.92
Nc1ccn(C2CSC(CO)O2)c(=O)n1 (configuration not stated)	0.893
COc1ccccc1C(=O)Nc1cc2c(cc1N1CCNCC1C)n(C)c(=O)n2C (configuration not stated)	1.01
COc1ccc(S(=O)(=O)N(C(C)=O)c2ccccc2/C=C/c2cc[n+]([O-])cc2)cc1	2.17

---

Here the recorded NF-kB SEAP reporter activity is given for each entry.
system: RAW-Dual; test: NF-kB SEAP reporter activity, fold change vs agonist alone; higher = enhanced NF-kB activity; details: library stock concentration (final ~1000-fold dilution): 10 mM; cytotoxicity flag (confluency mask): cytotoxic (confluency <70% of control); agonist: Imiquimod (TLR7) […]
In all, about 2,900 compounds were measured (“NF-kB SEAP reporter activity, fold change vs agonist alone”: median about 0.99, highest 2% from about 2.6 on). The full list was thinned out, with the highest values kept by preference.

Compound	NF-kB SEAP reporter activity
COc1cc2c(Oc3ccc4[nH]c(C)cc4c3F)ncnc2cc1OCCCN1CCCC1	1.98
CCCCCOc1ccc(-c2ccc(-c3ccc(C(=O)NC4CC(O)C(O)NC(=O)C5C(O)C(C)CN5C(=O)C(C(C)O)NC(=O)C(C(O)C(O)c5ccc(O)cc5)NC(=O)C5CC(O)CN5C(=O)C(C(C)O)NC4=O)cc3)cc2)cc1 (stereo not drawn)	1.67
CCC1=CC2CN(C1)Cc1c([nH]c3ccccc13)C(C(=O)OC)(c1cc3c(cc1OC)N(C)C1C(O)(C(=O)OC)C(OC(C)=O)C4(CC)C=CCN5CCC31C54)C2 (stereo not drawn)	2.47
Cc1[nH]c2ccccc2c1CCNCc1ccc(/C=C/C(=O)NO)cc1	2.51
Nc1ncnc2c1c(I)cn2C1OC(CO)C(O)C1O (stereo not drawn)	0.145
CCS(=O)(=O)N1CCN(c2ccc(Nc3ncc(C(N)=O)c(NC4CC4)n3)cc2)CC1.Cl	0.23
CN(CCNCc1cn(Cc2ccc(Cl)cc2)nn1)CCNc1ccnc2cc(Cl)ccc12.O=C(O)C(F)(F)F	1.52
COc1cc2c(Oc3ccc4[nH]c(C)cc4c3F)ccnc2cc1OCC1(N)CC1.Cl.Cl	1.53

These measurements were taken from the supplement of paper PMC10037445.
